study-system: Mitogen-activated protein kinase 13 (Homo sapiens) (UniProt O15264)
Sequence (O15264 whole entry): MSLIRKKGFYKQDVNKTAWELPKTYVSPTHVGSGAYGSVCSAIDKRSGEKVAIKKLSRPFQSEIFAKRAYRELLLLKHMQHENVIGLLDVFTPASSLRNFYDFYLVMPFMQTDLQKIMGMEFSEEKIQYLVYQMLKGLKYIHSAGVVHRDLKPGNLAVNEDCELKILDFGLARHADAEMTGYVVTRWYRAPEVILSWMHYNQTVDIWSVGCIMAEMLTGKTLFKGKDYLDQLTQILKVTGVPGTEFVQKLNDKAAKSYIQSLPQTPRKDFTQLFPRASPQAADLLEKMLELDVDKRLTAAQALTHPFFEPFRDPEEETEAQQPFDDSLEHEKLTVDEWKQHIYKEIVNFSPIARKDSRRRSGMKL
condition-parameters: at 10 µM
Rule: residual activity below 90% gives condition met. Equal to or above 90% gives condition not met.

compound: COc1ccc2c(c1)c(C1=C(c3c[nH]c4ccccc34)C(=O)NC1=O)cn2CCCN(C)C
category-label: condition not met
--
compound: O=C(NC(NC(=S)Nc1ccc(F)c([N+](=O)[O-])c1)C(Cl)(Cl)Cl)C(c1ccccc1)c1ccccc1 (stereo not drawn)
category-label: condition not met
--
compound: COc1cc2nccc(Oc3ccc(NC(=S)NC(=O)c4ccccc4C)cc3)c2cc1OC
category-label: condition met
--
compound: N#C/C(=C1/Nc2ccccc2S1)c1ccnc(NCCc2cccnc2)n1
category-label: condition met
--
compound: O=C1NC(=O)C(c2cn(CCCO)c3ncccc23)=C1c1cnccn1
category-label: condition not met
--
compound: COc1cc2nccc(Oc3ccc(NC(=O)Nc4cc(C)on4)c(Cl)c3)c2cc1OC
category-label: condition not met
--
compound: Nc1ncnc2[nH]nc(Nc3ccc(F)cc3)c12
category-label: condition not met
--
compound: Nc1nc(Nc2ccc(S(N)(=O)=O)cc2)nn1C(=O)c1c(F)cccc1F
category-label: condition met
--
compound: Nc1n[nH]c2nc3ccccc3nc12
category-label: condition not met
--
compound: NC(=O)Nc1sc(-c2ccc(F)cc2)cc1C(N)=O
category-label: condition met
--
compound: O=c1cc(N2CCOCC2)oc2c(-c3ccccc3)cccc12
category-label: condition met
--
compound: O=C1Cc2c([nH]c3ccc(Br)cc23)-c2ccccc2N1
category-label: condition met
--
compound: COc1cc2ncnc(Nc3cccc(Cl)c3)c2cc1OC
category-label: condition not met
--
compound: O=C1Nc2ccc(Cl)cc2/C1=C/c1cc(Cl)c(O)c(Cl)c1
category-label: condition not met
--
compound: O=C(Nc1nc2ccccc2n1CCN1CCOCC1)c1cccc([N+](=O)[O-])c1
category-label: condition met
--
compound: CC(C)c1nn(-c2c(Cl)cccc2Cl)c2nc(Cc3ccc(OCCO)cc3)[nH]c(=O)c12
category-label: condition met
--
compound: O=C(CCCc1ccc(-c2ccccc2F)cc1)Nc1ccc(O)cc1
category-label: condition not met
--
compound: c1ccc(-c2cnc(Nc3ccc(OCCN4CCCC4)cc3)s2)cc1
category-label: condition not met
--
compound: O=c1cc(N2CCOCC2)oc2c1ccc1ccccc12
category-label: condition not met
--
compound: CN(C)S(=O)(=O)c1ccc2c(c1)/C(=C/c1cc3c([nH]1)CCCC3)C(=O)N2
category-label: condition not met
--
compound: COc1cc2c(cc1OC)-c1n[nH]c(Nc3cccc(F)c3)c1C2
category-label: condition met

* * *

study-system: Mitogen-activated protein kinase 10 (Homo sapiens)
condition-parameters: at 1 µM
residual activity overview
endpoint-label: residual activity (%)

smiles-notation: Nc1nc(Nc2ccc(S(N)(=O)=O)cc2)nn1C(=O)c1c(F)cccc1F
reported-measurement: 51

smiles-notation: COc1cc2ncnc(Nc3cccc(Cl)c3)c2cc1OC
reported-measurement: 73

smiles-notation: COc1cc2c(cc1OC)-c1n[nH]c(Nc3cccc(F)c3)c1C2
reported-measurement: 53

smiles-notation: COc1ccc(CNC(=O)Nc2ncc([N+](=O)[O-])s2)cc1
reported-measurement: 65

smiles-notation: CCCC(=O)Oc1ccc2[nH]c(C(=O)c3cc4ccccc4[nH]3)cc2c1
reported-measurement: 69

smiles-notation: O=C(CCCc1ccc(-c2ccccc2F)cc1)Nc1ccc(O)cc1
reported-measurement: 109

smiles-notation: COc1ccc(-c2cnc3c(-c4ccsc4)cnn3c2)cc1
reported-measurement: 88

smiles-notation: O=C(O)/C=C/c1cc(Br)c(Br)c(Br)c1Br
reported-measurement: 99

smiles-notation: Nc1ncnc2c1cnn2-c1ccccc1
reported-measurement: 78

smiles-notation: O=C(Nc1ccc(Cl)cc1)c1ccccc1NCc1ccncc1
reported-measurement: 72

smiles-notation: NCCNc1ncc(C(N)=O)c(Nc2cccc(C(F)(F)F)c2)n1
reported-measurement: 79

smiles-notation: O=C1C(Cl)=C(N2C(=O)CCC2=O)C(=O)c2ccccc21
reported-measurement: 88

* * *

study-system: Angiopoietin-1 receptor (Homo sapiens) (UniProt Q02763)
Sequence (Q02763 whole entry): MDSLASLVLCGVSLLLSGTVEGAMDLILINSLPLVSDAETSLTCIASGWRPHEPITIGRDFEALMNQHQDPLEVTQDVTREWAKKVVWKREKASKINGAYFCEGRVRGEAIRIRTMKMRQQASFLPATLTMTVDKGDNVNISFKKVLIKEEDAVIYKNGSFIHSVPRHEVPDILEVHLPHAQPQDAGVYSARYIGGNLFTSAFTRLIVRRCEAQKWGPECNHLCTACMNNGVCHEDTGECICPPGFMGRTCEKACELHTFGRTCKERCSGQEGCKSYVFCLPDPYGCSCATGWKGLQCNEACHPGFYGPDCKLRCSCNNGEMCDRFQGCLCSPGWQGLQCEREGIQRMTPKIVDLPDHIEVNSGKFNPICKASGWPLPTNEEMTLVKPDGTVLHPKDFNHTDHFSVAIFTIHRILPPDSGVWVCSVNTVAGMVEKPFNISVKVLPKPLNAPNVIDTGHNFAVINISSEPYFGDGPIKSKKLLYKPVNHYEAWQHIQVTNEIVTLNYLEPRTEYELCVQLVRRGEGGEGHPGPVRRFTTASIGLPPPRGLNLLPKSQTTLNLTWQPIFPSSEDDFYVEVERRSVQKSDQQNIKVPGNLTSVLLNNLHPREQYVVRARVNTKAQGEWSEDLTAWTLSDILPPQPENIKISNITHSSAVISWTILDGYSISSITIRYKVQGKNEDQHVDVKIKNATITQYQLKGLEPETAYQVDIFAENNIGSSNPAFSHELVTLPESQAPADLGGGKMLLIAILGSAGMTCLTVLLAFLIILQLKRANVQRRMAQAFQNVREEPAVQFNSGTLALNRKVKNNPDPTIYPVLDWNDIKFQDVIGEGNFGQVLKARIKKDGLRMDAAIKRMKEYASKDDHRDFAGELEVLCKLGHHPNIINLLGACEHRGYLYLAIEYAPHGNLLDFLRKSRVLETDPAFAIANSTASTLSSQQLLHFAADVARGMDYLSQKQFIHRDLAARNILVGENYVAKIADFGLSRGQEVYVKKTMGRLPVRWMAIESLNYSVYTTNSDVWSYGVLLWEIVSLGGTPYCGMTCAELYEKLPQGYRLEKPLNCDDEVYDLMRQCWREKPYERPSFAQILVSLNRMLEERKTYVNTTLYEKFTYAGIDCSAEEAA
condition-parameters: at 10 µM
Binary call on residual activity: class 1 from 50% upward, class 0 beneath that.

smiles-notation: NC(=O)Nc1sc(-c2ccc(F)cc2)cc1C(N)=O
category-label: class 0
--
smiles-notation: COc1ccc2c(c1)c(C1=C(c3c[nH]c4ccccc34)C(=O)NC1=O)cn2CCCN(C)C
category-label: class 0
--
smiles-notation: O=C(c1cc2cc(O)ccc2[nH]1)c1cc2cc(O)ccc2[nH]1
category-label: class 1
--
smiles-notation: Oc1cccc(-c2nc(N3CCOCC3)c3oc4ncccc4c3n2)c1
category-label: class 1
--
smiles-notation: Fc1ccc(-c2nc3n(c2-c2ccncc2)CCS3)cc1
category-label: class 1
--
smiles-notation: CC(C)(C)c1nc2c3ccc(F)cc3c3c(=O)[nH]ccc3c2[nH]1
category-label: class 1
--
smiles-notation: CCN(CC)CCNC(=O)c1c(C)[nH]c(/C=C2\C(=O)Nc3ccc(Cl)cc32)c1C
category-label: class 0
--
smiles-notation: O=C(O)/C=C/c1cc(Br)c(Br)c(Br)c1Br
category-label: class 1
--
smiles-notation: O=c1cc(N2CCOCC2)oc2c1ccc1ccccc12
category-label: class 1
--
smiles-notation: CC(C)c1nn(-c2c(Cl)cccc2Cl)c2nc(Cc3ccc(OCCO)cc3)[nH]c(=O)c12
category-label: class 1

* * *

study-system: Tyrosine-protein kinase JAK2 (Homo sapiens) (UniProt O60674)
Sequence (O60674 whole entry): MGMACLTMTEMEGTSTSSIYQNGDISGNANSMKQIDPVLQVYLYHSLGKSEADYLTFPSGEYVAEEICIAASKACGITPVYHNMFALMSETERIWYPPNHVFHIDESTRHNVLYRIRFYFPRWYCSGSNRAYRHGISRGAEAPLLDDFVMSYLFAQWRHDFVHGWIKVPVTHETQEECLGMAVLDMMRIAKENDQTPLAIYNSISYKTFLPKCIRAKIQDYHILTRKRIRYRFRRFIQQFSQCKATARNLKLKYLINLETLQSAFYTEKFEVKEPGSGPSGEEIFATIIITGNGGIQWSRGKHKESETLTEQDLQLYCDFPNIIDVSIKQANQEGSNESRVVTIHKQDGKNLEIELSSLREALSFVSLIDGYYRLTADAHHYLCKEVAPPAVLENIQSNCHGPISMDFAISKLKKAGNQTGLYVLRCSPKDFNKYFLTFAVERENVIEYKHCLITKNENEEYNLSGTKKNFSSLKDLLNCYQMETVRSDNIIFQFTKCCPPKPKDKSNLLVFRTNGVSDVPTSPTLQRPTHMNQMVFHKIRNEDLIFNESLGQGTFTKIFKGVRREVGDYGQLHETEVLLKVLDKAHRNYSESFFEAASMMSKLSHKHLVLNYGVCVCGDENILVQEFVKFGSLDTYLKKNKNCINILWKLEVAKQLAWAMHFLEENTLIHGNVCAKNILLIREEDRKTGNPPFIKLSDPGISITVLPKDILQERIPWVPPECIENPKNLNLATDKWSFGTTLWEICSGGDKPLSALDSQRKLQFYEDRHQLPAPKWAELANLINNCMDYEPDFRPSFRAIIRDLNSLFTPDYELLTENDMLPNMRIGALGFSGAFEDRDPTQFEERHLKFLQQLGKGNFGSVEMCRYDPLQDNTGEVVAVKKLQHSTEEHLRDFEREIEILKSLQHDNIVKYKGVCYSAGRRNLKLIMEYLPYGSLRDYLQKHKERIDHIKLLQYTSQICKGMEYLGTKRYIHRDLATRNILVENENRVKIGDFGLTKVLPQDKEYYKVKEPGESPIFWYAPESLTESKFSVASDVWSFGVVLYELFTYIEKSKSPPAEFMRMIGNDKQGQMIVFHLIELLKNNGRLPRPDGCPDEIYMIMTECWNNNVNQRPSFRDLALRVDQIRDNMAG
condition-parameters: at 10 µM
// boundary case: residual activity equal to 70% maps to criterion not met; strictly smaller maps to criterion met

smiles-notation: O=C(O)/C=C/c1cc(Br)c(Br)c(Br)c1Br
study-system: Tyrosine-protein kinase JAK2 (Homo sapiens) (UniProt O60674)
category-label: criterion met

smiles-notation: O=C1NC(=O)C(c2c[nH]c3ccccc23)=C1c1c[nH]c2ccccc12
study-system: Tyrosine-protein kinase JAK2 (Homo sapiens) (UniProt O60674)
category-label: criterion met

smiles-notation: Nc1nc(Nc2ccc(S(N)(=O)=O)cc2)nn1C(=O)c1c(F)cccc1F
study-system: Tyrosine-protein kinase JAK2 (Homo sapiens) (UniProt O60674)
category-label: criterion met

smiles-notation: COc1ccc2c(c1)c(C1=C(c3c[nH]c4ccccc34)C(=O)NC1=O)cn2CCCN(C)C
study-system: Tyrosine-protein kinase JAK2 (Homo sapiens) (UniProt O60674)
category-label: criterion not met

smiles-notation: O=C(c1ccccc1)c1ccc(N2CCOCC2)cc1O
study-system: Tyrosine-protein kinase JAK2 (Homo sapiens) (UniProt O60674)
category-label: criterion not met

smiles-notation: CCCCc1c(-c2ccc(O)cc2)[nH]c2nccnc12
study-system: Tyrosine-protein kinase JAK2 (Homo sapiens) (UniProt O60674)
category-label: criterion met

smiles-notation: CCN(CC)CCNC(=O)c1c(C)[nH]c(/C=C2\C(=O)Nc3ccc(Cl)cc32)c1C
study-system: Tyrosine-protein kinase JAK2 (Homo sapiens) (UniProt O60674)
category-label: criterion met

smiles-notation: CC(C)(C)c1nc2c3ccc(F)cc3c3c(=O)[nH]ccc3c2[nH]1
study-system: Tyrosine-protein kinase JAK2 (Homo sapiens) (UniProt O60674)
category-label: criterion met

smiles-notation: Cn1c2ccccc2c2c3c(c4c5ccccc5n(CCC#N)c4c21)CNC3=O
study-system: Tyrosine-protein kinase JAK2 (Homo sapiens) (UniProt O60674)
category-label: criterion met

smiles-notation: O=C1NC(=O)c2c1c1c3ccccc3[nH]c1n1cncc21
study-system: Tyrosine-protein kinase JAK2 (Homo sapiens) (UniProt O60674)
category-label: criterion not met

smiles-notation: N#Cc1c(NC(=O)c2cccc3ccccc23)sc2c1CCCC2
study-system: Tyrosine-protein kinase JAK2 (Homo sapiens) (UniProt O60674)
category-label: criterion not met

smiles-notation: CCCC(=O)Oc1ccc2[nH]c(C(=O)c3cc4ccccc4[nH]3)cc2c1
study-system: Tyrosine-protein kinase JAK2 (Homo sapiens) (UniProt O60674)
category-label: criterion not met

smiles-notation: COc1cc2ncnc(Nc3cccc(Cl)c3)c2cc1OC
study-system: Tyrosine-protein kinase JAK2 (Homo sapiens) (UniProt O60674)
category-label: criterion not met

smiles-notation: O=C(Nc1ccc(Cl)cc1)c1ccccc1NCc1ccncc1
study-system: Tyrosine-protein kinase JAK2 (Homo sapiens) (UniProt O60674)
category-label: criterion not met

smiles-notation: O=C1Cc2c([nH]c3ccc([N+](=O)[O-])cc23)-c2ccccc2N1
study-system: Tyrosine-protein kinase JAK2 (Homo sapiens) (UniProt O60674)
category-label: criterion not met

smiles-notation: COc1ccc(Cl)cc1NC(=O)Nc1cc(C)nc2ccccc12
study-system: Tyrosine-protein kinase JAK2 (Homo sapiens) (UniProt O60674)
category-label: criterion not met

smiles-notation: CC(C)(C)n1nc(Cc2cccc3ccccc23)c2c(N)ncnc21
study-system: Tyrosine-protein kinase JAK2 (Homo sapiens) (UniProt O60674)
category-label: criterion not met

smiles-notation: Fc1ccc(-c2nc3n(c2-c2ccncc2)CCS3)cc1
study-system: Tyrosine-protein kinase JAK2 (Homo sapiens) (UniProt O60674)
category-label: criterion not met

smiles-notation: Nc1n[nH]c2nc3ccccc3nc12
study-system: Tyrosine-protein kinase JAK2 (Homo sapiens) (UniProt O60674)
category-label: criterion not met

smiles-notation: c1ccc(-c2cnc(Nc3ccc(OCCN4CCCC4)cc3)s2)cc1
study-system: Tyrosine-protein kinase JAK2 (Homo sapiens) (UniProt O60674)
category-label: criterion not met

smiles-notation: CCOC(=O)c1c(C)[nH]c(/C=C2\C(=O)Nc3ccccc32)c1C
study-system: Tyrosine-protein kinase JAK2 (Homo sapiens) (UniProt O60674)
category-label: criterion not met

smiles-notation: COc1cc2c(cc1OC)-c1n[nH]c(Nc3cccc(F)c3)c1C2
study-system: Tyrosine-protein kinase JAK2 (Homo sapiens) (UniProt O60674)
category-label: criterion not met

smiles-notation: Nc1ncnc2c1c(-c1ccc(Oc3ccccc3)cc1)cn2C1CCCC1
study-system: Tyrosine-protein kinase JAK2 (Homo sapiens) (UniProt O60674)
category-label: criterion not met

smiles-notation: CCCCc1c(-c2ccc(OC)cc2)[nH]c2nccnc12
study-system: Tyrosine-protein kinase JAK2 (Homo sapiens) (UniProt O60674)
category-label: criterion met

Entry source: ChEMBL document CHEMBL2218924
